All figures here come from the RNAGym collection of RNA variant scans (doi:10.7554/elife.90254).

B1: LINE1-full (parent)
chain: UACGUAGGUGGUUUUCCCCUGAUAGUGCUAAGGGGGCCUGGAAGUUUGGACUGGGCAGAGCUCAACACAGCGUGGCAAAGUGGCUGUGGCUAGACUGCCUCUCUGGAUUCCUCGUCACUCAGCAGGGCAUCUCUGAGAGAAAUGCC

variants of: B1; assay: self-cleavage, relative activity (ratio to wild type); higher = more cleavage; in vitro, sequencing; the parent is a self-cleaving ribozyme
Outcome label depends on self-cleavage relative to 0.7: at/above gives fulfilled, below gives not fulfilled.

* UACGUAGGUGGUUUUCCCCAGAUAGUGCUAAGGGGGCCUGGAAGUUUGGACUGGGCAGAGCUCAACACAGCGUGGCAAAGUGGCUGUGGCUAGACUGCCUCUCUGGGUUCCUCGUCACUCAGCAGGGCAUCUCUGAGAGAAAUGCC | fulfilled
* UACGUAGGUGGUUUUCCCCUGAUAGUGCUAAGGGGGCCUGGAAGUUUGGACUGGGCAGAGCUCAACACAGCGUGGCUAAGUGGCUGUGGCUAGACUGCCUCUCUGGAUUCCUCGUCACUCAGCAGGGCAUCUCUGGGAGAAAUGCC | fulfilled
* UACGUAGGUGGUUUUCCCCUGAUAGUGCUAAGGGGGCCUGGAAGUUUGGACUGGGCAGAGCUCAACACAGCGUGGCAAAGUGGCUGUGGCUAGACUGCCUCACUGGAUUCCUCGUCACUCAGCCGGGCAUCUCUGAGAGAAAUGCC | fulfilled
* UACGUAGGUGGUUUUCCCCUGAUAGUGCUAAGGGGGCUUGGAAGUUUGGACUGGGCAGAGCUCAACACAGCGUGGCAAAGUGGCUGUGGCUAGACUGCCUCUCUGGGUUCCUCGUCACUCAGCAGGGCAUCUCUGAGAGAAAUGCC | fulfilled
* UACGUAGGUGGUUUUCCCCUGAUAGUGCUAAGGGGGCCUGGAAGUUUGGACUGGGCAGAGCUCAACCCAGCGUGGCAAAGUAGCUGUGGCUAGACUGCCUCUCUGGAUUCCUCGUCACUCAGCAGGGCAUCUCUGAGAGAAAUGCC | not fulfilled
* UACGUAGGUGGUUUUCCCCUGAUAGUGCUAAGGGGGCCUGGAAGUUUGGACUGGGCAGAGCUCAACACAGCGUGGCAAAGUGGCUGUGGCAAGACCGCCUCUCUGGAUUCCUCGUCACUCAGCAGGGCAUCUCUGAGAGAAAUGCC | not fulfilled
* UACGUAGGUGGUUUUCCCCUGAUAGUGCUAAGGGGGCCUGGAAGUUUGGACUGGGCAGAGCUCAACACAGCGUGGCAAAGGGGCUGUGGCUAGACUGCCCCUCUGGAUUCCUCGUCACUCAGCAGGGCAUCUCUGAGAGAAAUGCC | fulfilled
* CACGUAGGUGGUUUUCCCCUGAUAGUGCUAAGGGGGCCUGGAAGCUUGGACUGGGCAGAGCUCAACACAGCGUGGCAAAGUGGCUGUGGCUAGACUGCCUCUCUGGAUUCCUCGUCACUCAGCAGGGCAUCUCUGAGAGAAAUGCC | fulfilled
* UACCUAGGUGGUUUUCCCCUGAUAGUGCUAAGGGGGCCUGGAAGUUUGGACUGGGCAGAGCUCAACACAGCGUGGCAAAGUGGCUGUGGCUAGACUGCCUCUCUGGAUUCCCCGUCACUCAGCAGGGCAUCUCUGAGAGAAAUGCC | fulfilled
* UACGUAGGUGGUUUUCCCCUGAUAGUGCUAAGGGAGCCUGGAAGUUUGGACUGGGCAGAGCUCAACACAGCGUGGCAAAGUGGCUGUGGCUAGACUGCCUCUCUGGAUUCCUCGUCACUCAGCAGGGCAACUCUGAGAGAAAUGCC | fulfilled
* UACGUAGGUGGUUUUCCCCUGAUAGUGCUAAGUGGGCCUGGAAGUUUGGACUGGGCAGAGCUCAACACAGCGUGGCAAAGUGGCUGUGGCUAGACUGCCUCUCUGGAUUCCUCGACACUCAGCAGGGCAUCUCUGAGAGAAAUGCC | fulfilled
* UACGUAGGUGGUUUUCCCCUGAUAGUGCUAAGGGGGCCUGGAAGUUUGGACUGGGCAGAGCUCAACACUGCGUGGCAAAGUGGCUGUGGCUAGACUGCCUCUCUGGAUUCCUCGUCACUCAGCAGGGCAUCACUGAGAGAAAUGCC | not fulfilled
* UACGUAGGUGGUUUUCCCCUGAUAGUGCUAAGGGGGCCUGGAAGUUGGGACUGGGCAGAGCUCAACACAGCGUGGCAAAGUGGCCGUGGCUAGACUGCCUCUCUGGAUUCCUCGUCACUCAGCAGGGCAUCUCUGAGAGAAAUGCC | not fulfilled
* UACGUAGGUGGUUUUCCCCUGAUAGUGCUAAGGGGGCCUGGAAGUUUGGACUGGGCAGAGCUCUACACAGCGUGGCAAAGUGGCUGUGGCUAGACUGCCUCUCUGGAUUCCUCGUCACUCAGCGGGGCAUCUCUGAGAGAAAUGCC | not fulfilled
* UACGUAGGUGGUUUUCCCCUGAUAGUGCUAAGGGGGCCUGGAAGAUUGGACUGGGCAGAGCUCAACACAGCGUGGCUAAGUGGCUGUGGCUAGACUGCCUCUCUGGAUUCCUCGUCACUCAGCAGGGCAUCUCUGAGAGAAAUGCC | fulfilled
* UACGUAGGUGGUUUUCCCCUGAUAGUGCUAAGGGGGCCUGGAAGUUUGGACUUGGCAGAGCUCAACACAGCGUGGCAAAGAGGCUGUGGCUAGACUGCCUCUCUGGAUUCCUCGUCACUCAGCAGGGCAUCUCUGAGAGAAAUGCC | fulfilled
* UACGUAGGUGGUUUUCCCCUGGUAGUGCUAAGGGGGCCUGGAAGUUUUGACUGGGCAGAGCUCAACACAGCGUGGCAAAGUGGCUGUGGCUAGACUGCCUCUCUGGAUUCCUCGUCACUCAGCAGGGCAUCUCUGAGAGAAAUGCC | fulfilled
* UACGUAGGUGGGUUUCCCCUGAUAGUGCUAAGGGGGCCUGGAAGUUUGGACUGGGCAGAGCUCGACACAGCGUGGCAAAGUGGCUGUGGCUAGACUGCCUCUCUGGAUUCCUCGUCACUCAGCAGGGCAUCUCUGAGAGAAAUGCC | not fulfilled
* UACGUAGGUGGUUUUCCCCUGAUAGUGCUAAGGGGGCCUGGAAGUUUGGACUGGGCCGAGCUCAACACAGCUUGGCAAAGUGGCUGUGGCUAGACUGCCUCUCUGGAUUCCUCGUCACUCAGCAGGGCAUCUCUGAGAGAAAUGCC | not fulfilled
* UACGAAGGUGGUUUUCCCCUGAUAGUGCUAAGGGGGCCUAGAAGUUUGGACUGGGCAGAGCUCAACACAGCGUGGCAAAGUGGCUGUGGCUAGACUGCCUCUCUGGAUUCCUCGUCACUCAGCAGGGCAUCUCUGAGAGAAAUGCC | fulfilled
* UACGUAGGUGGUUUUCCCCUGAUAGUGCUAAGGGGGCCUGGAAGUUUGGACUGGGCAGAGCUCAACAUAGCGUGGCAAAGUGGCUGUGGCUAGACUGCCUCUCUGGAUUCCUCGUCACUCAGCAGGGCAUCUCUGAGAGUAAUGCC | not fulfilled
